# experimental target: Odorant-binding protein 3 (Acyrthosiphon pisum) (UniProt C1KUY3)
# Sequence (C1KUY3 as listed by the source): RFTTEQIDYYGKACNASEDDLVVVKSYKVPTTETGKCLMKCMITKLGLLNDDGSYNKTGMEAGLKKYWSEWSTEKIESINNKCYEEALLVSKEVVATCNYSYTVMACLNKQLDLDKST
# procedure text: Displacement of fluorescent probe 1-NPN from Acyrthosiphon pisum (pea aphid) recombinant OBP3 by competitive binding assay
The source made the active and inactive calls. The rule behind the calls is not given here.
experimental readout: Activity

Consider the reported Activity for these compounds:
{"record smiles": "CC(C)=CCC/C(C)=C/COC(=O)c1cc(C(C)C)nn1C(C)(C)C", "result": "Active"}
{"record smiles": "CC(C)=CCC/C(C)=C/COC(=O)c1cc(C)nn1C(C)(C)C", "result": "Active"}
{"record smiles": "CCCc1cc(C(=O)OC/C=C(\\C)CCC=C(C)C)n(C(C)(C)C)n1", "result": "Active"}
{"record smiles": "N#C/N=C1\\SCCN1Cc1ccc(Cl)nc1", "result": "Active"}
{"record smiles": "CC(C)=CCC/C(C)=C/COC(=O)c1ccc(Br)cc1", "result": "Active"}
{"record smiles": "CC(C)=CCC/C(C)=C/COC(=O)c1cc(C(C)C)nn1-c1ccc([N+](=O)[O-])cc1", "result": "Active"}

Ask: Quick one: Activity of CC(C)=CCC/C(C)=C/COC(=O)c1cc(-c2ccccc2)nn1-c1ccc([N+](=O)[O-])cc1 ?
Result: Active

Ask: Next compound up: CC(C)=CCC/C(C)=C/COC(=O)c1c(F)cccc1F
Result: Active
